experimental-system: PARP1 WT (UniProt P09874 1-1014)
Sequence (P09874 whole entry): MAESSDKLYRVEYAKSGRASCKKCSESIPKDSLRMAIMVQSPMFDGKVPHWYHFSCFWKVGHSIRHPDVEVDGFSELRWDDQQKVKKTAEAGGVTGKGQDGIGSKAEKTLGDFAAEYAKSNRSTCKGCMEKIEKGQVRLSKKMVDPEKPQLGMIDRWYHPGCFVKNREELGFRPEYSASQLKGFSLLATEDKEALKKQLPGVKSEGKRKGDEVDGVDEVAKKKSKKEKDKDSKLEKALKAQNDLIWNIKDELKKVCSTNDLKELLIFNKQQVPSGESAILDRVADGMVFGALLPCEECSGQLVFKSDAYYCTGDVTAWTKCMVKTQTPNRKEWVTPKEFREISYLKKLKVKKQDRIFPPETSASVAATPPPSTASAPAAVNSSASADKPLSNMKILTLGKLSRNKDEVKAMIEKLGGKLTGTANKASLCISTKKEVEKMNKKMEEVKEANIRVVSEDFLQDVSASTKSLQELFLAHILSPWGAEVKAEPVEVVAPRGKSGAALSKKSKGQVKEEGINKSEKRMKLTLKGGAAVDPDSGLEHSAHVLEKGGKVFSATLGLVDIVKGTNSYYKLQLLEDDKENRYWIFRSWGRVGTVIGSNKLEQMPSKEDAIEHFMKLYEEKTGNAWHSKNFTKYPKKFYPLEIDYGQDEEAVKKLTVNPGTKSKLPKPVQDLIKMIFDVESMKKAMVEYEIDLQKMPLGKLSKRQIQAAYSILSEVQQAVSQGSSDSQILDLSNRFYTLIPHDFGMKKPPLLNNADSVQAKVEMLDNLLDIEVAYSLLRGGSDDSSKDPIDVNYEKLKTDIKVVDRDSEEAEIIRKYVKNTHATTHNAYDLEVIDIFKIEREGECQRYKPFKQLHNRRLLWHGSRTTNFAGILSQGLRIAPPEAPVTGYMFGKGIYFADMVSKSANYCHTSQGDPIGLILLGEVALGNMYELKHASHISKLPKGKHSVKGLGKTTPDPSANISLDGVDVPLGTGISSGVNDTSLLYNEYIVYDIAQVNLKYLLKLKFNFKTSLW
experiment: fluorescence polarization
measurement-name: pKd
Answers are plain numbers, as −log10 of the molar value.

Per the record, 18-bp DNA duplex (dsDNA) DNA 1: GGGTTGCGGCCGCTTGGG DNA 2: CCCAAGCGGCCGCAACCC has pKd of 6.93
